Values were extracted from paper PMC3720808.

- measurement target: Tyro3 (Homo sapiens, UniProt Q06418)
- Sequence (Q06418 41-890): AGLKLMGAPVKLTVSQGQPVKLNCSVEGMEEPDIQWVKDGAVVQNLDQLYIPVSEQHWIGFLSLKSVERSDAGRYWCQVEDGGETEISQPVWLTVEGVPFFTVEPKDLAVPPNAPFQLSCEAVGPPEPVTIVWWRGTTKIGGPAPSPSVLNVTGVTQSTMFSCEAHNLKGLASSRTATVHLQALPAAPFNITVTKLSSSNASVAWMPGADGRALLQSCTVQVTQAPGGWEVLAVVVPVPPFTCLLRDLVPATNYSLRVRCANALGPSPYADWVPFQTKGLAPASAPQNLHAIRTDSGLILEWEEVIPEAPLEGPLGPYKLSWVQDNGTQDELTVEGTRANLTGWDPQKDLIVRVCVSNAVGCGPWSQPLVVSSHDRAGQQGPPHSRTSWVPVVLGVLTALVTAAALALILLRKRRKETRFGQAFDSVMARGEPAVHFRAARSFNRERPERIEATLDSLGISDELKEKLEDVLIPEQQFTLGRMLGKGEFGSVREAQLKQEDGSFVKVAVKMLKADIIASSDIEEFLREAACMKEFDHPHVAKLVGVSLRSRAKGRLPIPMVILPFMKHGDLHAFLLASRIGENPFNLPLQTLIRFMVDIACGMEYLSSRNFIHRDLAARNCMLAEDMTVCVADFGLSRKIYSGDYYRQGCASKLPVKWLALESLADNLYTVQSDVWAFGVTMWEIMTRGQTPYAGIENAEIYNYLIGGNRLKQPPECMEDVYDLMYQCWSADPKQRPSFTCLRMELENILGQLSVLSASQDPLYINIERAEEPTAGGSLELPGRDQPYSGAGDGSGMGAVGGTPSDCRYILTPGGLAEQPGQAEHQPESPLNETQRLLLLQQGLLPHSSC
- measurement protocol: Microfluidic capillary electrophoresis
- Assay type: biochemical
- condition summary: read-out: IC50 Tyro3; ATP at Km; mean of two or more independent assays
outcome measure: IC50 (nM)
Your answer is read as nM, so omit the unit and give the number.

GET /value?item= CCCCNc1ncc2c(-c3ccc(S(=O)(=O)N4CCCC4)cc3)nn([C@H]3CC[C@H](O)CC3)c2n1 &field=IC50 returns 22

----------
- measurement target: Axl (Homo sapiens, UniProt P30530)
- Sequence (P30530 26-894, species assumed): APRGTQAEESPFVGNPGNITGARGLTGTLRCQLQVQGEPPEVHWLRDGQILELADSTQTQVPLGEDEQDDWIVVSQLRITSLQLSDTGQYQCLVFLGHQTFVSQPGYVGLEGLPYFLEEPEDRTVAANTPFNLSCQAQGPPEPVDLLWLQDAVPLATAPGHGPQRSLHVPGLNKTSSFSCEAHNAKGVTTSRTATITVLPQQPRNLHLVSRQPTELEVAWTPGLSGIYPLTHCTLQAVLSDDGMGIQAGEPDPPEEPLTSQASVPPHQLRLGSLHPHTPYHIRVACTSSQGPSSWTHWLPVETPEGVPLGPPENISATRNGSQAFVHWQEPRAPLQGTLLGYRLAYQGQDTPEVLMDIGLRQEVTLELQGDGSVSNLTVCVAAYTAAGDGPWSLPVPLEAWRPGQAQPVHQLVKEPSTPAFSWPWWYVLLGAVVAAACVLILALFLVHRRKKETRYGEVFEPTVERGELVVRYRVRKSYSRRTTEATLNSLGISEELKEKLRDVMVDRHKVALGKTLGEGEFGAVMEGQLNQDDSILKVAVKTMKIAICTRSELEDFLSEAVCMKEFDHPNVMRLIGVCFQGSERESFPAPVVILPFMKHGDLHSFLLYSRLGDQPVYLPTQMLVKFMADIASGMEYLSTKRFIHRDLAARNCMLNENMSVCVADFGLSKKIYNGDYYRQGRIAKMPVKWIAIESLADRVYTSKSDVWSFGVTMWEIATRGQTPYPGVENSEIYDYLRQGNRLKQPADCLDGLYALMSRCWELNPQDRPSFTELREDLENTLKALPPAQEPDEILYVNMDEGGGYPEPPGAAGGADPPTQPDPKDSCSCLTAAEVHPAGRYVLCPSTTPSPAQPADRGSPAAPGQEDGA
- measurement protocol: Microfluidic capillary electrophoresis
- Format: biochemical
pIC50: −log10 of the molar value.
T means recorded pIC50 is 7 or above; F means it is below 7.

q: Answer whether pIC50 of CCCCNc1ncc2c(-c3ccc(S(=O)(=O)NC4CCCCC4)cc3)nn([C@H]3CC[C@H](O)CC3)c2n1 is greater than or equal to 7.
a: F

q: Could you verify whether the entry CCCCNc1ncc2c(-c3ccc(S(=O)(=O)N4CCC(C(=O)N5CCOCC5)CC4)cc3)nn([C@H]3CC[C@H](O)CC3)c2n1 shows pIC50 of no less than 7?
a: T

q: Is the recorded value of pIC50 equal to or greater than 7 for this molecule? CCCCNc1ncc2c(-c3ccc(S(N)(=O)=O)cc3)nn([C@H]3CC[C@H](O)CC3)c2n1
a: T

----------
- measurement target: Axl (Homo sapiens, UniProt P30530)
- measurement protocol: Microfluidic capillary electrophoresis
- Format: biochemical
outcome measure: IC50

Consider CCCCNc1ncc2c(-c3ccc(S(=O)(=O)NC(C)C)cc3)nn([C@H]3CC[C@H](O)CC3)c2n1 [Compound 22] . Its measured IC50 is 120 nM

The measured IC50 associated with CCCCNc1ncc2c(-c3ccc(S(=O)(=O)NCCC)cc3)nn([C@H]3CC[C@H](O)CC3)c2n1 [Compound 21] reads 62 nM

The compound listed as CCCCNc1ncc2c(-c3ccc(S(=O)(=O)Nc4ccc(F)cc4)cc3)nn([C@H]3CC[C@H](O)CC3)c2n1 [Compound 27] has a reported IC50 of 6500 nM

Field IC50 (entry CCCCNc1ncc2c(-c3ccc(S(=O)(=O)NC)cc3)nn(C[C@H]3CC[C@H](N)CC3)c2n1 [Compound 2] ) reads 59 nM
